B1: ZNF511 (parent)
chain: EPLPVERDPAAGAAPFRFVARPVR

Variants of: B1
Test: protein stability index of a GFP-peptide fusion (GPS, HEK-293T) (PSI 1-6); higher = more stable;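 further: lentivirally expressed fusions sorted by FACS into six bins by GFP to DsRed ratio, PSI derived from sequencing read proportions per bin multiplied by bin number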
Details: c terminus: a fixed tail appended
So I've got a bunch of variants here, and I need their protein stability index values.
Numbers only.

Example entries begin here.
# variant "A14R" ; its protein stability index = 2.68

# variant "P15F" ; its protein stability index = 3.23

# variant "P15E" ; its protein stability index = 3.04

Give protein stability index for each of the items listed below.
1. F18W
2. A13P
3. R24P
4. R21P
5. F18I
6. F18A
7. R17C

a:
4.43
2.37
2.75
3.54
4.71
4.83
3.88

# variant "R21A" ; its protein stability index = 2.46
